# TGI annotations
Test system: BT-549 breast
Assay: NCI tumour cell line growth inhibition, 48 h
Give the quantity in µM, number only.

The examples below pair each entry with its known result.
compound	unitText	readoutValue
O=C(/C(=C\c1ccc([N+](=O)[O-])cc1)S(=O)Cc1ccc(F)cc1)c1ccc(F)cc1 (stereo not given)	µM	3.88
O=C(c1ccccc1)c1ccc(-n2c3ccccc3c3ccc4c(c32)C(=O)C=CC4=O)cc1	µM	38.5
CCOC(=O)c1c(C)n2c(=O)cc(C)c3c(O)c(O)cc1c32	µM	79.7

Note: attention shifts to another entry.
Exercise: Give recorded TGI with BT-549 breast for the following compound: Clc1ccc2c(c1)N(CCCN1CCCC1)c1ccccc1S2
Key: 24.4

---

Tested on: HCC-2998 colon
Test: NCI tumour cell line growth inhibition, 48 h
Item-by-item account of TGI
Numbers only; they are read as µM.

See these solved cases before continuing.
compound	testReadout	unitText	readoutValue
CC(=O)OC/C=C\Cn1nc(Br)c(=O)[nH]c1=O	TGI	µM	31.7
NCCN1C(=O)CN=C(c2ccc(Cl)cc2)c2cc(Cl)ccc21	TGI	µM	31.8

Now for another entry.
Exercise: I would be grateful if you could share the reported TGI for CC1(C)C(O)C[C@@H](O)[C@@]2(C)C1CC[C@]1(C)C2C[C@@H](O)[C@@H]2C([C@@]3(C)CC[C@@H](C(C)(C)O)O3)CCC21C (stereo partly specified) .
Key: 31.4

---

Tested on: PC-3 prostate
Assay: NCI tumour cell line growth inhibition, 48 h
testReadout: GI50

Exercise: Form field - read-out: GI50; system: PC-3 prostate; submitted item: Clc1ccc2c(c1)N(CCCN1CCCC1)c1ccccc1S2
Key: 4.38 µM

---

System: SK-MEL-2 melanoma
Test: NCI tumour cell line growth inhibition, 48 h
testReadout: TGI (µM)
Kindly provide the numeric value in µM only, without the unit symbol.

Answered cases to consult:
compound	TGI [µM]
CCCCCCOc1ccc(C(=O)NO)cc1	39
NC1CCC(Nc2nc(NCc3ccc(-c4cccs4)nc3)c3ncn(C4CCCC4)c3n2)CC1 (stereo unspecified)	0.288
Cc1cccc2c1N(C(=O)/C=C\C(=O)O)C(c1c(C)[nH]c3ccccc13)C2 (stereo unspecified)	36

Exercise: Requested read-out: TGI. Entry: COc1cc(S(=O)(=O)Nc2ccc(-c3csc(N)n3)cc2)ccc1Cl
Key: 35

Exercise: # input compound: Cc1ccc(N=Nc2ccc(O)c(CN(C)C)c2)cc1 ; wanted: its TGI
Key: 37.7

Exercise: Fill in: TGI of COc1cccc2c1OC(c1ccc(C#N)cc1)C([N+](=O)[O-])=C2 (stereo unspecified) is ___
Key: 4.38

---

Test system: NCI/ADR-RES ovarian
Experiment: NCI tumour cell line growth inhibition, 48 h
testReadout: TGI (µM)
# number only, unit µM dropped from output

Take a look at these entries with their results.
compound	TGI, µM
COc1ccc(C(SCC(N)C(=O)O)(c2ccccc2)c2ccccc2)cc1 (stereo unspecified)	33.7
NC(N)=N/N=C/c1c(-c2cc(Cl)sc2Cl)nc2sccn12	15.4

Shifting focus to the compound that follows.
Exercise: Lookup: TGI / NCI/ADR-RES ovarian / COc1ccc2c(CN3CCC(C(=O)O)CC3)cc3cc4c(cc3c2c1)OCO4
Key: 6.99

---

Test system: DU-145 prostate
Test: NCI tumour cell line growth inhibition, 48 h
testReadout: TGI

compound	TGI
NC(=S)N/N=C1\NC(=O)/C(=C/c2ccc3c(c2)OCO3)S1	88 µM
C=C[C@@H]1C[C@]2(C(=O)OC)Cc3nc4ccccc4nc3CC(C(=O)OC)=C2O1	> 100 µM
CC1CC[C@@]2(OC1)OC1CC3C4CCC5C[C@@H](OC6OC(CO)C(OC7OC(CO)C(O)C(OC8OC(CO)C(O)C(OC9OC(CO)C(O)C(O)C9O)C8O)C7OC7OC(CO)C(O)C(O)C7O)C(O)C6O)[C@H](O)C[C@]5(C)C4CC[C@]3(C)C1[C@@H]2C (stereo not given in full)	> 80.5 µM
O=C(O)c1cc(/C=C/c2cc(O)ccc2O)ccc1O	> 10 µM
Clc1cc(Cl)cc(C2ON=C(c3ccccc3)N2C23CC4CC(CC(C4)C2)C3)c1 (stereo not given)	> 10 µM

Next item in the queue.
Exercise: Entry C=C(C)[C@@H]1CC[C@]2(C(=O)O)CC[C@]3(C)[C@H](CC[C@@H]4[C@@]5(C)C[C@@H](CC#Cc6ccc(C(F)(F)F)cc6)[C@H](O)C(C)(C)[C@@H]5CC[C@]43C)[C@@H]12 : reported TGI = ?
Key: > 100 µM

---

System: MDA-MB-231 breast
Test: NCI tumour cell line growth inhibition, 48 h
Attribute: GI50

compound	GI50
CCCCCCCCCCCCCC1=NCCN1CCO	3.04 µM
c1cc2[nH]ncc2cc1-c1nc2ccc3[nH]ncc3c2c2c1CCCC2	2.67 µM

Exercise: Give recorded GI50 with MDA-MB-231 breast for the following compound: Clc1ccc2c(c1)N(c1ncnc3ccc(-c4cnc5[nH]ccc5c4)cc13)CC2
Key: 2.01 µM

Exercise: Observed GI50 on MDA-MB-231 breast for Clc1cccc(Cl)c1C1CSc2ccccc2N=C1c1ccccc1 (configuration not stated) , please.
Key: 2.95 µM

Exercise: Query GI50 on MDA-MB-231 breast for CC1(C)CCC2=C(O1)c1ccccc1C(=O)C2=O
Key: 2.01 µM

Exercise: Query for MDA-MB-231 breast: what GI50 does the record show for O=[N+]([O-])c1ccccc1N/N=C\c1c[nH]c2ccccc12 ?
Key: 2.98 µM

Exercise: Lookup: GI50 / MDA-MB-231 breast / Clc1ccc2c(c1)N(CCCN1CCCC1)c1ccccc1S2
Key: 3.42 µM

Exercise: Record O=C(/C(=C\c1ccc([N+](=O)[O-])cc1)S(=O)Cc1ccc(F)cc1)c1ccc(F)cc1 (configuration not stated) : what is its GI50 with MDA-MB-231 breast?
Key: 1.99 µM

Exercise: Kindly state the measured GI50 obtained for [O-][n+]1ccccc1S with MDA-MB-231 breast.
Key: 6.73 µM

---

Tested on: HT29 colon
Assay: NCI tumour cell line growth inhibition, 48 h
Form field: TGI (one value per entry).

Worked cases, TGI given:
compound	testReadout	readoutValue
Cc1ccc(N=Nc2ccc(O)c(CN(C)C)c2)cc1	TGI	32.3 µM
CN(NC(=O)c1cccs1)C1=NCCCCN1	TGI	> 100 µM
CCCCCCCCN(CCCCCCCC)CCCCCCNc1cc(OC)cc2cccnc12	TGI	15.9 µM
Cc1oc2c(Cl)cc(O)c(Cl)c2c2cccc1-2	TGI	> 100 µM

Exercise: Which TGI is listed for CCCCCCCCCCCCCCCCOCC(Cl)COP(=O)(O)OP(=O)(O)OCC1OC(n2cc(C)c(=O)[nH]c2=O)CC1O (stereo not given) ?
Key: > 100 µM

Exercise: Report TGI for CNC(=O)SCC(N)C(=O)O (stereo not given) please.
Key: > 100 µM

Exercise: # query: TGI of entry CC(/C(=N\Nc1ccccc1)c1ccc(O)cc1)C1C(=O)Oc2ccccc21 (stereo not given)
Key: > 100 µM

Exercise: For CO[C@@H]1C=C[C@@]23c4cc5c(cc4C(=O)O[C@H]2CN(C)[C@H]3C1)OCO5 , what is its reported TGI?
Key: > 100 µM

Exercise: Name the reported TGI value associated with the compound NC(=O)CCC(N=C(N)c1csc(C2OC(CO)C(O)C2O)n1)C(=O)O (stereo not given)
Key: > 100 µM

Exercise: Sample CC1=CC[C@@]2(CO)[C@@H]([C@@H]1C)[C@H]1CC[C@@H]3[C@@]4(C)CC[C@H](O)C(C)(C)[C@@H]4CC[C@@]3(C)[C@]1(C)C[C@@H]2O — what was its TGI?
Key: > 100 µM

Exercise: May I ask what TGI has been recorded for COc1ccc(C(CC(=O)C(C)(C)CN2CCCCC2)SCCS(=O)(=O)O)cc1 (stereo not given) ?
Key: 83.2 µM

---

Test system: HL-60(TB) leukemia
Assay: NCI tumour cell line growth inhibition, 48 h
testReadout: TGI (µM)
Provide the reading as a plain figure in µM.

Consider the reported TGI for these molecules:
molecule	systemName	readoutValue
COc1cc(S(=O)(=O)Nc2ccc(-c3csc(N)n3)cc2)ccc1Cl	HL-60(TB) leukemia	43.6
O=c1oc2ccccc2c(O)c1/C=N/C(=S)NCCc1ccccc1	HL-60(TB) leukemia	5.38

Exercise: What value of measured TGI is listed for O=C(/C(=C\c1ccc([N+](=O)[O-])cc1)S(=O)Cc1ccc(F)cc1)c1ccc(F)cc1 (stereo not given) ?
Key: 5.38

Exercise: Returns the measured TGI for the input molecule. Input: CCN(CC)CCOc1ccccc1/C=C/c1noc2ccccc12
Key: 40.1

Exercise: Dear colleague, I am looking for the recorded TGI of the following molecule: COc1cccc2c1OC(c1ccc(C#N)cc1)C([N+](=O)[O-])=C2 (stereo not given)
Key: 5.62

Exercise: So what's the measured TGI for this one? Cc1cc(O)ccc1C1=NN(c2ccc(S(C)(=O)=O)cc2)C(=O)CC1
Key: 48.4
